studySystem: T1, Human CD19-his protein (human, UniProt P15391 20-291)
T1 construct: bought protein; also called human CD19 protein; recombinant human CD19-His; not shown: His tag
T1 sequence (looked up): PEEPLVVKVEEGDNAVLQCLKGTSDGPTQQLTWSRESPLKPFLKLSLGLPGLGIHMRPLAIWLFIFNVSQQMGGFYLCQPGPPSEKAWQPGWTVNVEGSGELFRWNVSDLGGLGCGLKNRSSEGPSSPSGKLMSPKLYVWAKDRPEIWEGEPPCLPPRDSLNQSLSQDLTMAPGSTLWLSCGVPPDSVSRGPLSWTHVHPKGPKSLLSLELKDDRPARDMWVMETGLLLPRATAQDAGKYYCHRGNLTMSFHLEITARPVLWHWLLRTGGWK
test: ELISA on coated human CD19-His
Here the recorded EC50 (read off the curve) is given for each entry.

{"binder": "F4.191.1 (antibody, human IgG1, V domains shown, human-murine chimeric antibody, human IgG1) VH: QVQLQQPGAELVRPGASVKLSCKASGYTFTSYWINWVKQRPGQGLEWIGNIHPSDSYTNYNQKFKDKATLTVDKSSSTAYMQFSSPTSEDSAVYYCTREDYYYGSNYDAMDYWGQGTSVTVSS VL: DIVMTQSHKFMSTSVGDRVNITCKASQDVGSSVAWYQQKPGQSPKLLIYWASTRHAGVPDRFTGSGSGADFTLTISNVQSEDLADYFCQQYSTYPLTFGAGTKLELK", "EC50 (read off the curve)": "~200 pM"}

Switching to the query record.
GET /value?item= F4.18.13 (antibody, human IgG1, V domains shown, human-murine chimeric antibody, human IgG1) VH: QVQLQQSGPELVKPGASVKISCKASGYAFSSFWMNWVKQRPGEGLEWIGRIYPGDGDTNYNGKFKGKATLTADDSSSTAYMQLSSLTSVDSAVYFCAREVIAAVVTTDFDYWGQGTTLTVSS VL: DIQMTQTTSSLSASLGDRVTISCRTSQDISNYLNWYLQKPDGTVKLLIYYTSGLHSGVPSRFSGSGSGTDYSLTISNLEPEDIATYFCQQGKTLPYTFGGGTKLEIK &field=EC50 (read off the curve) returns ~50 pM
